The measured values listed here are drawn from patent US20240209076A1.

Recorded kon by entry
Target: T1, recombinant human IL-6 (human, UniProt P05231 30-212)
T1 construct: Bought protein
T1 sequence (P05231 30-212 limits assumed): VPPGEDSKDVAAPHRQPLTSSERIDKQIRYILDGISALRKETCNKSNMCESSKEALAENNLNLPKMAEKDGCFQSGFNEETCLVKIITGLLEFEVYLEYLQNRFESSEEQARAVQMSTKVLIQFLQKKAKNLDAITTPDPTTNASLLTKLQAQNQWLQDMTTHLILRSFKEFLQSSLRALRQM
Assay: SPR Biacore, purified Ab on Protein A chip, IL-6 analyte, 37 C
Express your answer in M⁻¹ s⁻¹, writing the number without its unit.

Field: example entries. Status: answers known.
# Binder, Quantitative result
rows = [
    ("anti-IL-6 antibody, heavy chain variant II (M34W, G66D, I108V) / light chain variant V (M32L, M50D, M88Q) (antibody, V domains shown, See note of m39; also called M34W, G66D, I108V/ M32L, M50D, M88Q; II/V) VH: EVQLVESGGGLVQPGGSLRLSCAASGFTFSPFAWSWVRQAPGKGLEWVAKISPGGSWTYYSDTVTDRFTFSLDTSKSTAYLQMNSLRAEDTAVYYCARQLWGYYALDVWGQGTLVTVSS VL: DIQLTQSPSSLSASVGDRVTITCSASISVSYLYWYQQKPGKAPKLLIYDDSNLASGVPSRFSGSGSGTDFTLTISSLQPEDFATYYCQQWSGYPYTFGQGTKVEIK", "1.34e+06"),
    ("anti-IL-6 antibody, heavy chain variant I (M34I, G66D, I108V) / light chain variant III (M32L, M50D, N52S, M88Q) (antibody, human IgG1, V domains shown, also called M34I, G66D, I108V/ M32L, M50D, N52S, M88Q; I/III) VH: EVQLVESGGGLVQPGGSLRLSCAASGFTFSPFAISWVRQAPGKGLEWVAKISPGGSWTYYSDTVTDRFTFSLDTSKSTAYLQMNSLRAEDTAVYYCARQLWGYYALDVWGQGTLVTVSS VL: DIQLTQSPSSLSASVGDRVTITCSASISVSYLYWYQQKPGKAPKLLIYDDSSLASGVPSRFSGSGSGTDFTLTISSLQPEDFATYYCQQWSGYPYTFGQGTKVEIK", "1.22e+06"),
]

As a next step, examine the binder that follows.
# kon (binder: anti-IL-6 antibody, light chain M32V (heavy chain WT) (antibody, V domains shown, See note of m2; also called WT / M32V) VH: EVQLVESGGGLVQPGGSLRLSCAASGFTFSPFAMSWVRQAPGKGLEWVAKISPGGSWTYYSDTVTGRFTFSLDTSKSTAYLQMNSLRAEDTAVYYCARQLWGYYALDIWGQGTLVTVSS VL: DIQLTQSPSSLSASVGDRVTITCSASISVSYVYWYQQKPGKAPKLLIYDMSNLASGVPSRFSGSGSGTDFTLTISSLQPEDFATYYCMQWSGYPYTFGQGTKVEIK ) is 861000
